test system: MCF10A cells; test: cells; format: cell-based; conditions: Homo sapiens, MCF-10A; PI staining, 72-h treatment
pEC50: −log10 of the molar value.
PARAMETER: pEC50

Consider the compound shown here: CC(C)[C@@H](C)/C=C/[C@@H](C)[C@H]1CC[C@@H]2[C@]1(C)CC[C@H]1[C@]23C=C[C@]2(C[C@@H](O)CC[C@]12C)OO3 [EP, ergosterol peroxide] What is its recorded pEC50? < 4.00

* * *

test system: additional cancer cellular models; experiment: Cell viability, additional cancer cellular models; type: cell-based; details: Supplementary Figure S2
pEC50: −log10 of the molar value.
PARAMETER: pEC50

Consider the molecule shown here: CC(C)[C@@H](C)/C=C/[C@@H](C)[C@H]1CC[C@@H]2[C@]1(C)CC[C@H]1[C@]23C=C[C@]2(C[C@@H](O)CC[C@]12C)OO3 [EP, ergosterol peroxide] What is its recorded pEC50? 4.66 to 5.15
